Recorded log10 IC50 values for a group of compounds are listed next.
Molecular target: NDM-1 (Klebsiella pneumoniae)
Sequence (C7C422 29-270, looked up, species assumed): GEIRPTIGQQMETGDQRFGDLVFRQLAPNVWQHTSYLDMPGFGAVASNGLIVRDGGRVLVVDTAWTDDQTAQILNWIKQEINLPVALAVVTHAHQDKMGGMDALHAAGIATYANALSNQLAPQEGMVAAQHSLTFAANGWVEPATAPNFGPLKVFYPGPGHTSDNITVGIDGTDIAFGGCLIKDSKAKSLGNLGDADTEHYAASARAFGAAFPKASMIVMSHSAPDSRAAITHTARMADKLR
Assay: Enzyme activity: determination of IC50, fluorescence assay with CCF2-FA substrate
Assay type: biochemical
Conditions: enzyme 1 pM, CCF2-FA 1.25 μM, 2 hours at 25° C.; read-out: NDM1 IC50
Values are log10 of IC50 in µM.

Some compounds with known log10 IC50 results, for comparison:
Compound | log10 IC50
CCC[C@H](C(=O)O)[C@H](Cc1ccccc1)c1nnn[nH]1 [Example 4] | -1.31
CCC[C@H](C(=O)O)[C@H](Cc1ccc(C)cc1)c1nn[nH]n1 [Example 52] | -1.06
CCC[C@H](C(=O)O)[C@H](Cc1ccccc1Br)c1nnn[nH]1 [Example 26] | -2.00
CCC[C@H](C(=O)O)[C@H](Cc1ccc(N2CCN(C(C)=O)CC2)cc1)c1nn[nH]n1 [Example 228] | -1.48

Now for another entry.
Task: // lookup log10 IC50 for CCC[C@H](C(=O)O)[C@H](Cc1ccc(O)nc1)c1nnn[nH]1 [Example 157]
Result: -0.14

# credit: patent US9839642B2
